assay details: Inhibition of FTase by fluorimetry
measured property: Activity (µg/mL)

{"columns": ["molecule", "display unit", "Activity"],
 "data": [
  ["CC(C)=CC[C@]12OC(C)(C)[C@@H]3C[C@@H](C=C4C(=O)c5c(O)cc6c(c5O[C@]431)C(C)(C)[C@H](C)O6)C2=O [ISOBRACTATIN]", "µg/mL", 5.6],
  ["C=CC(C)(C)c1c(O)cc(O)c2c1O[C@]13C(=C[C@@H]4C[C@H]1C(C)(C)O[C@@]3(CC=C(C)C)C4=O)C2=O [BRACTATIN]", "µg/mL", 4.7]
]}

###

This listing pairs compounds with measured Activity.
assay details: Inhibition of FTase by fluorimetry

Answered examples (2):
{"columns": ["smiles text", "measured property", "val"],
 "data": [
  ["C=CC(C)(C)c1c(O)cc(OC)c2c1O[C@]13C(=C[C@@H]4C[C@H]1C(C)(C)O[C@@]3(CC=C(C)C)C4=O)C2=O", "Activity", "> 10 µg/mL"],
  ["COc1cc2c(c3c1C(=O)C1=C[C@@H]4C[C@H]5C(C)(C)O[C@](CC=C(C)C)(C4=O)[C@@]15O3)C(C)(C)[C@H](C)O2", "Activity", "> 10 µg/mL"]
]}

I have this compound here, C=CC(C)(C)c1c(O)cc(OC)c2c1O[C@]13[C@@H](C2=O)[C@H](OC)[C@@H]2C[C@H]1C(C)(C)O[C@@]3(CC=C(C)C)C2=O , and I need its recorded Activity.
> 10 µg/mL
